molecular target: T1, RSV postfusion F (postF), subtype A (respiratory syncytial virus, subtype A, UniProt P03420 26-513); test: BLI, IgG
T1 construct: also called F ΔFP; Postfusion subtype A

BINDER	binding result
ADI-20962 (antibody, V domains shown) VH: QVQLVQSGAEVKKPGASVKVSCKASGYTFSHYGLSWVRQAPGQGLEWMGWISAYNHNTNYAQKFQGRVTITTDTSTSTAYLEMRSLRSDDTAVYYCAREPPSDTAAGTGDYWGQGTLVTVSS VL: DIVMTQSPLSLSVTLGQPASISCRSSQSLVYSDGNTYLTWFQQRPGQSPRRLIYKVSNRDSGVPDRFSGSGSGTDFTLKISRVEAEDVGVYYCMQGTQWPRTFGQGTKVDIK	no binding
ADI-14411 (antibody, V domains shown, also called Ab 77) VH: QVQLVQSGAEVKKPGASVKLSCKASGYTFTRFYIHWVRQAPGQGLEWMGIINPSGGGTSYAQNFQDRVTMTRDTSTSTVYMELSSLRSEDTAVYYCARNGYSTRSLQNNWFDPWGQGTLVTVSS VL: ETTLTQSPSSLSASVGDRVTITCRASQSIDNYLNWYQQKPGKAPKLLIYEASSLQSGVPSRFSGSGSGTDFTLTISSLQPEDFATYYCQQTYSSLPYTFGQGTKVEIK	no binding
